Quick reference for residual activity among some compounds
molecular target: Serine/threonine-protein kinase PLK3 (Homo sapiens); conditions: at 10 µM
Description: Millipore: Percentage of residual kinase activity of PLK3 at 10uM relative to control. Control inhibitor: Wortmannin at 100.0uM. Buffer: 8 mM MOPS pH 7.0, 0.2 mM EDTA

entry.smiles	result.units	residual activity
Nc1n[nH]c2nnc(-c3c(-c4ccccc4)nn4ccccc34)cc12	%	99
Oc1ccc(Nc2nc(-c3ccc(Cl)cc3)cs2)cc1	%	94
COc1cc2ncnc(Nc3ccc(Oc4ccccc4)cc3)c2cc1OC	%	95
Ic1cccc(CSc2nnc(-c3ccncc3)o2)c1	%	94
Cn1cnc2cc3c(Nc4cccc(Br)c4)ncnc3cc21	%	92

---

Quick reference for residual activity among some molecules
Target: 3-phosphoinositide-dependent protein kinase 1 (Homo sapiens) (UniProt O15530)
Sequence (whole entry): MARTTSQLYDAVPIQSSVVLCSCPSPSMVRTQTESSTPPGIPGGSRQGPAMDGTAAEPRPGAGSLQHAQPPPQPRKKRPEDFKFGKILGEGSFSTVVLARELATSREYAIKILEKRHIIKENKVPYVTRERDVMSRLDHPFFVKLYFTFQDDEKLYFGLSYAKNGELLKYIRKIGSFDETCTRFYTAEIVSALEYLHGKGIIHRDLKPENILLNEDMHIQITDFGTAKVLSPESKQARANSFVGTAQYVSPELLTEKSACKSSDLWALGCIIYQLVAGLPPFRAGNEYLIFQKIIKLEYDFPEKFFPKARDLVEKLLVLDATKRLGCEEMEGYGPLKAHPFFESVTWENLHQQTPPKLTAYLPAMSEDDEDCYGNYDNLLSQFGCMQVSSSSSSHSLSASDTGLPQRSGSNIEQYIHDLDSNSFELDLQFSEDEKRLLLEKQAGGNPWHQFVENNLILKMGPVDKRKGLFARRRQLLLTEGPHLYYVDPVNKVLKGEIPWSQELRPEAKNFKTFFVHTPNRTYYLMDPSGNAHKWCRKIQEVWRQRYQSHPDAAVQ
Settings: at 10 µM

entry.smiles	residual activity
Nc1n[nH]c2nnc(-c3c(-c4ccccc4)nn4ccccc34)cc12	94%
O=c1cc(-c2cccc3c2Sc2ccccc2S3)oc(N2CCOCC2)c1	107%
CC(=O)O/N=C1\C(=C2\C(=O)Nc3cc(Br)ccc32)Nc2ccccc21	67%

---

Quick reference for residual activity among some compounds
target: Protein kinase C epsilon type (Homo sapiens); settings: at 10 µM

entry.smiles	measured.on	residual activity [%]
C[C@@H](N)[C@H]1CC[C@H](C(=O)Nc2ccncc2)CC1	Protein kinase C epsilon type (Homo sapiens)	31
CN(C)c1ccc(/C=C2\C(=O)Nc3ccccc32)cc1	Protein kinase C epsilon type (Homo sapiens)	121
O=C(O)c1ccc2c3c1cccc3c(=O)n1c3ccccc3nc21	Protein kinase C epsilon type (Homo sapiens)	109

---

Quick reference for residual activity among some compounds
target: Casein kinase II subunit alpha' (Homo sapiens); conditions: at 10 µM
endpoint: residual activity

entry.smiles	measured.on	result
Nc1n[nH]c2nnc(-c3c(-c4ccccc4)nn4ccccc34)cc12	Casein kinase II subunit alpha' (Homo sapiens)	92%
Oc1ccc(Nc2nc(-c3ccc(Cl)cc3)cs2)cc1	Casein kinase II subunit alpha' (Homo sapiens)	99%
O=C(Nc1cccc(Nc2cc(Nc3cccc(C(F)(F)F)c3)ncn2)c1)C1CC1	Casein kinase II subunit alpha' (Homo sapiens)	103%
N#C/C(=C(\N)Sc1ccc(N)cc1)c1ccccc1C(F)(F)F	Casein kinase II subunit alpha' (Homo sapiens)	104%
COc1ccc(CNc2nc(N(CCO)CCO)nc3c2ncn3C(C)C)cc1	Casein kinase II subunit alpha' (Homo sapiens)	107%

---

molecular target: Vascular endothelial growth factor receptor 3 (Homo sapiens) (UniProt P35916); details: at 10 µM
Sequence (P35916 whole entry): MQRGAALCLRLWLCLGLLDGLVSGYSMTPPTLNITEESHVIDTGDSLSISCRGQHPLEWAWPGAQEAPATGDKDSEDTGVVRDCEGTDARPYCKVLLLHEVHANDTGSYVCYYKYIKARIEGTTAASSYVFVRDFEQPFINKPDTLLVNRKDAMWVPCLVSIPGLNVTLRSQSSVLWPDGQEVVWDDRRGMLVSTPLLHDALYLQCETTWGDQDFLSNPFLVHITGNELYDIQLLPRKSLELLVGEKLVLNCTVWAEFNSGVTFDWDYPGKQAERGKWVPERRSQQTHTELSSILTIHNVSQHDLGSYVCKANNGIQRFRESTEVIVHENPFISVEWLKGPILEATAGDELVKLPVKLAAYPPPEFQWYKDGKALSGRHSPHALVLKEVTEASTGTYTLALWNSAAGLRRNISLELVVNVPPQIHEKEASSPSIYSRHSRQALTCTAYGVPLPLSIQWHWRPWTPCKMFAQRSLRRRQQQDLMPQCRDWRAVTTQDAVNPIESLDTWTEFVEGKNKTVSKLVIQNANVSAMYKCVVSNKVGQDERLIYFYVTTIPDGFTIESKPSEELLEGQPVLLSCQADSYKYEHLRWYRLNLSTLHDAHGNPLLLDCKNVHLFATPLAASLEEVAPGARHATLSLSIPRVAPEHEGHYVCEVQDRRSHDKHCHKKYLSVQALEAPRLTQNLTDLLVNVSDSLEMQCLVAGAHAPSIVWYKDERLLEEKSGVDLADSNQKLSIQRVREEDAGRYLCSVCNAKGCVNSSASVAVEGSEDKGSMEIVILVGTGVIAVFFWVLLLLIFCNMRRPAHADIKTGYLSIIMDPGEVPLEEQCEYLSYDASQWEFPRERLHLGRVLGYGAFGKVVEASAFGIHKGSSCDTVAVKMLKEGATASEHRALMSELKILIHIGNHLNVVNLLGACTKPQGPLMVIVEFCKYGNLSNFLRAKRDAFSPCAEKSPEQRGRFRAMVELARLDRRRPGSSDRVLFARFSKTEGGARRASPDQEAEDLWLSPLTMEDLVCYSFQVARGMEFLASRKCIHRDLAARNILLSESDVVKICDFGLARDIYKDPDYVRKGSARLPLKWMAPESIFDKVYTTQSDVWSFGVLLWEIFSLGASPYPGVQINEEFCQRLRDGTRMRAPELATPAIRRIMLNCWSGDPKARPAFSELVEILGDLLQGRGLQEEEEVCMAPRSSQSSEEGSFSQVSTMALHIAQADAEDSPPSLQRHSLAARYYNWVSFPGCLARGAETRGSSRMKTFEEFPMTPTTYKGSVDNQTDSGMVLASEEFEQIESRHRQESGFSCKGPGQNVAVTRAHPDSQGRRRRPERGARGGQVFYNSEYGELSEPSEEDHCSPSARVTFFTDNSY
Quick reference for residual activity among some compounds
endpoint: residual activity (%)

entry.smiles	readout.number
Cc1cc2ncc(-c3ccccc3)nc2cc1C	26
CCN(CC)CCCCN1c2ccccc2Oc2ccc(Cl)cc21	102
CNc1cc2c(Nc3cccc(Br)c3)ncnc2cn1	38

---

molecular target: Casein kinase I isoform delta (Homo sapiens) (UniProt P48730); conditions: at 10 µM
Sequence (P48730 whole entry, looked up, canonical isoform): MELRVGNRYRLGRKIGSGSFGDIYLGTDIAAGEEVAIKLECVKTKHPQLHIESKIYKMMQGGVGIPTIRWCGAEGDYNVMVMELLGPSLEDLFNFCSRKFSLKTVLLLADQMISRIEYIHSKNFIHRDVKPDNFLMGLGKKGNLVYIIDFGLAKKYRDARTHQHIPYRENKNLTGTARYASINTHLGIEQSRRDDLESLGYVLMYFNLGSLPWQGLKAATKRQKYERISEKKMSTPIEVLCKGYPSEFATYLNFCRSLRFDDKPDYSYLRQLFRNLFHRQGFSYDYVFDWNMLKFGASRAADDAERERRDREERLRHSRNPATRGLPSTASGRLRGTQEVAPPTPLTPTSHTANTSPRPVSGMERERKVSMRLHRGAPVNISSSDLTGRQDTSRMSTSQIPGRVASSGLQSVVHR
Description: Millipore: Percentage of residual kinase activity of CSNK1D at 10uM relative to control. Control inhibitor: Jnk Inhibitor II at 100.0uM. Buffer: 8 mM MOPS pH 7.0, 0.2 mM EDTA

compound	residual activity, %
COc1cc2ncnc(N3CCN(C(=O)Nc4ccc(Oc5ccccc5)cc4)CC3)c2cc1OC	89
Nc1ccc2ncnc(NCCc3ccc(Oc4ccccc4)cc3)c2c1	53
CC(=O)O/N=C1\C(=C2\C(=O)Nc3cc(Br)ccc32)Nc2ccccc21	48
Cc1nc2cc3nc(-c4cccs4)cnc3cc2n1C	67
O=c1c2ccccc2[nH]c(=S)n1CCN1CCC(=C(c2ccc(F)cc2)c2ccc(F)cc2)CC1	63
Cc1cccc(-c2[nH]c(C(C)(C)C)nc2-c2ccc3c(c2)OCO3)n1	33
Nc1n[nH]c2nnc(-c3c(-c4ccccc4)nn4ccccc34)cc12	17
CN(C)CCCn1cc(C2=C(c3c[nH]c4ccccc34)C(=O)NC2=O)c2ccccc21	79
O=C(Nc1cccc(Nc2cc(Nc3cccc(C(F)(F)F)c3)ncn2)c1)C1CC1	54
O=C(O)c1ccc2c3c1cccc3c(=O)n1c3ccccc3nc21	58
O=C1Nc2ccccc2/C1=C1/Nc2ccccc2/C1=N\OCCC(O)CO (configuration not stated)	9
Oc1c2ccccc2c2c3c(cccc13)N=N2	1
CN(C)c1ccc(/C=C2\C(=O)Nc3ccccc32)cc1	21
CC#CC(=O)Nc1cc2c(Nc3ccc(F)c(Cl)c3)ncnc2cn1	106
Cn1cnc2cc3c(Nc4cccc(Br)c4)ncnc3cc21	64
c1ccc(-c2n[nH]cc2-c2ccnc3ccccc23)nc1	2
O=C1NC(=O)c2cc(Nc3ccc(F)cc3)c(Nc3ccc(F)cc3)cc21	45
CCC(=O)Nc1ccc2ncnc(Nc3cccc(Br)c3)c2c1	100
COc1cccc(-c2cc(=O)c3ccccc3o2)c1N	87
Cc1cc2ncc(-c3ccccc3)nc2cc1C	55
CNc1cc2c(Nc3cccc(Br)c3)ncnc2cn1	90
CCOc1cc2ncnc(Nc3cccc(Br)c3)c2cc1OCC	51

---

target: Calcium/calmodulin-dependent protein kinase type II subunit beta (Homo sapiens); details: at 1 µM
Quick reference for residual activity among some compounds
endpoint: residual activity

compound	endpoint	result
CCC(=O)Nc1ccc2ncnc(Nc3cccc(Br)c3)c2c1	residual activity	90%
Cc1nc(-c2ccccc2)c(-c2ccncc2)o1	residual activity	97%
O=C1Nc2ccc(Br)cc2/C1=C\c1cc2c([nH]1)CCCC2	residual activity	72%
Cc1nc2cc3nc(-c4cccs4)cnc3cc2n1C	residual activity	100%
CO[C@H]1[C@@H](OC)C[C@H](C)[C@@H](OC)C2=CC(=O)C=C(NC(=O)/C(C)=C/C=C/[C@H](OC)[C@@H](OC(N)=O)/C(C)=C/[C@@H]1C)C2=O	residual activity	97%
O=C1NC(=O)c2cc(Nc3ccc(F)cc3)c(Nc3ccc(F)cc3)cc21	residual activity	85%
N#C/C(=C(\N)Sc1ccc(N)cc1)c1ccccc1C(F)(F)F	residual activity	79%
CN(C)c1ccc(/C=C2\C(=O)Nc3ccccc32)cc1	residual activity	101%
Nc1nc(Nc2ccc(S(N)(=O)=O)cc2)nn1C(=S)Nc1c(F)cccc1F	residual activity	5%
O=[N+]([O-])c1ccc(-c2nc(-c3ccc(F)cc3)c(-c3ccncc3)[nH]2)cc1	residual activity	102%
N#CCCc1ccc2c(c1)-c1[nH]c3ccc([N+](=O)[O-])cc3c1CC(=O)N2	residual activity	54%
O=C(Nc1cccc(Nc2cc(Nc3cccc(C(F)(F)F)c3)ncn2)c1)C1CC1	residual activity	91%
O=C1Nc2ccccc2/C1=C1/Nc2ccccc2/C1=N\OCCC(O)CO (centres undefined)	residual activity	27%
CC(=O)c1ccc(N2CCOCC2)cc1O	residual activity	89%

---

target: Serine/threonine-protein kinase PLK1 (Homo sapiens) (UniProt P53350); conditions: at 1 µM
Sequence (P53350 whole entry): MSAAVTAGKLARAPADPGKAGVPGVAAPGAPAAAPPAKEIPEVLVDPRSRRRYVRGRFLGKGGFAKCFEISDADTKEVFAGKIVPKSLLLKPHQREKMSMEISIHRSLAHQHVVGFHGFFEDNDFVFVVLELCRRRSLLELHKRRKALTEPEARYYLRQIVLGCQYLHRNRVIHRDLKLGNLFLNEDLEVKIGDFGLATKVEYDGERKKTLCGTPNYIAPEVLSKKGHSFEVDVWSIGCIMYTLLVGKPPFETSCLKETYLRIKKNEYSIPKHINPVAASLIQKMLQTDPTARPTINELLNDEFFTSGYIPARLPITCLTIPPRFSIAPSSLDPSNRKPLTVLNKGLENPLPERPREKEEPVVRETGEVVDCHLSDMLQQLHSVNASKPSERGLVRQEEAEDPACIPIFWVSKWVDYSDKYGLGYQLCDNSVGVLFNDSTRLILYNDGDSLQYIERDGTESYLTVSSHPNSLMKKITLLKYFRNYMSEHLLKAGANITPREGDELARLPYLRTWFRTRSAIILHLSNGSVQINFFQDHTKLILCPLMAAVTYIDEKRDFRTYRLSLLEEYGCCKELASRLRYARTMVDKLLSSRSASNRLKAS
Quick reference for residual activity among some molecules

entry.smiles	measured.on	result.units	residual activity
COc1ccc(OC)c2c(=S)c3ccccc3[nH]c12	Serine/threonine-protein kinase PLK1 (Homo sapiens) (UniProt P53350)	%	80
N#CC(C#N)=C(N)/C(C#N)=C/c1ccc(O)cc1	Serine/threonine-protein kinase PLK1 (Homo sapiens) (UniProt P53350)	%	79
COc1cc2ncc(-c3ccccc3)nc2cc1OC	Serine/threonine-protein kinase PLK1 (Homo sapiens) (UniProt P53350)	%	88
Nc1ccc2ncnc(NCCc3ccc(Oc4ccccc4)cc3)c2c1	Serine/threonine-protein kinase PLK1 (Homo sapiens) (UniProt P53350)	%	90
c1ccc(-c2n[nH]cc2-c2ccnc3ccccc23)nc1	Serine/threonine-protein kinase PLK1 (Homo sapiens) (UniProt P53350)	%	80
Cc1cncc2cccc(S(=O)(=O)N3CCCN(C(=O)CN)C[C@H]3C)c12	Serine/threonine-protein kinase PLK1 (Homo sapiens) (UniProt P53350)	%	90
Cc1ccc(S(=O)(=O)/C=C/C#N)cc1	Serine/threonine-protein kinase PLK1 (Homo sapiens) (UniProt P53350)	%	92
Cc1cccc(-c2[nH]c(C(C)(C)C)nc2-c2ccc3c(c2)OCO3)n1	Serine/threonine-protein kinase PLK1 (Homo sapiens) (UniProt P53350)	%	80
CCN(CC)C(=O)c1ccc(Nc2nc(OCC3CCCCC3)c3nc[nH]c3n2)cc1	Serine/threonine-protein kinase PLK1 (Homo sapiens) (UniProt P53350)	%	78
Cn1nc2c3c(cccc31)C(=O)c1ccccc1-2	Serine/threonine-protein kinase PLK1 (Homo sapiens) (UniProt P53350)	%	81
O=[N+]([O-])c1ccc(-c2nc(-c3ccc(F)cc3)c(-c3ccncc3)[nH]2)cc1	Serine/threonine-protein kinase PLK1 (Homo sapiens) (UniProt P53350)	%	88
